biological target: CDK1/CyclinB (Homo sapiens (Human), UniProt P06493); assay: CDK1/CyclinB kinase inhibitory activity (Caliper mobility shift); conditions: read-out: CDK1/Cyclin B1 IC50
Sequence (P06493 whole entry): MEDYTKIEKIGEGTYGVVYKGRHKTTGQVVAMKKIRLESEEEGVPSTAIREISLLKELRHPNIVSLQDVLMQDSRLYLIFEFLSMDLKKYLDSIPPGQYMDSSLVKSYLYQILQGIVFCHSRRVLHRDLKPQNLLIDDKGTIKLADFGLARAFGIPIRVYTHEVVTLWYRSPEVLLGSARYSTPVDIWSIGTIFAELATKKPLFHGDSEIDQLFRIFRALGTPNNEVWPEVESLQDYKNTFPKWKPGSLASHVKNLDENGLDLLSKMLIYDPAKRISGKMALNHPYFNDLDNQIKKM
Sequence (P14635 whole entry partner): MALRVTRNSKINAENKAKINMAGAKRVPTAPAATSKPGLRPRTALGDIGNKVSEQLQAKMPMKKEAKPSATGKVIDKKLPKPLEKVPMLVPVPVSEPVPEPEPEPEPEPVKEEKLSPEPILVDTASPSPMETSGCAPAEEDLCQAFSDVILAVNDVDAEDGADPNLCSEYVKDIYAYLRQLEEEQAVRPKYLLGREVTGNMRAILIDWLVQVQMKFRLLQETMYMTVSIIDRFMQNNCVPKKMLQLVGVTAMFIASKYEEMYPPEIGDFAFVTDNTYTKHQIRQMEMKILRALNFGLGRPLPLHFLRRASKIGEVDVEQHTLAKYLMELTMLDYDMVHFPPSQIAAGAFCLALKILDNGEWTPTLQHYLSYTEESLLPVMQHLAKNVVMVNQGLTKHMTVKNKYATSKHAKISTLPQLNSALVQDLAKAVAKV
pIC50: −log10 of the molar value.
pIC50 reference

Some solved cases for reference:
CS(=O)(=O)N1CCC(Nc2ncc(C(F)(F)F)c(OC3CCCCC3O)n2)CC1 (single isomer, unassigned) [Example 120a] :: 7.00 to 8.00
CN1CCC(NS(=O)(=O)c2ccc(Nc3ncc(Cl)c(OC4CCCC4O)n3)cc2)CC1 (single isomer, unassigned) [Example 139b] :: 6.00 to 7.00
[2H]C([2H])([2H])NS(=O)(=O)c1ccc(Nc2ncc(C)c(OC3CCCC3O)n2)cc1 (single isomer, unassigned) [Example 148a] :: 6.00 to 7.00
C[C@]1(O)CCC[C@H]1Oc1nc(NC2CCN(S(C)(=O)=O)CC2)ncc1C#N (relative stereo) [Example 5b] :: 6.00 to 7.00
[2H]C([2H])([2H])NS(=O)(=O)c1ccc(Nc2ncc(CC)c(OC3CCOCC3(C)O)n2)cc1 (single isomer, unassigned) [Example 152a] :: > 8.00
CNS(=O)(=O)c1ccc(Nc2ncc(Cl)c(OC3CCCC3O)n2)cc1 (single isomer, unassigned) [Example 137a] :: 7.00 to 8.00
NS(=O)(=O)c1ccc(Nc2ncc(C(F)(F)F)c(OC3COCCC3O)n2)cc1 (single isomer, unassigned) [Example 115a] :: 7.00 to 8.00
CNS(=O)(=O)N1CCC(Nc2ncc(C(F)(F)F)c(OC3CCCCCC3O)n2)CC1 (single isomer, unassigned) [Example 123a] :: 6.00 to 7.00

[in] Field request: pIC50 | item: CNS(=O)(=O)c1ccc(Nc2ncc(C(F)(F)F)c(OC3CCOCC3O)n2)cc1 (single isomer, unassigned) [Example 116b]
[out] 6.00 to 7.00
